- test-protocol: Lipophilicity, shake-flask partitioning between PBS (pH 7.4) and n-octanol
- Type: physicochemical
- condition: PBS (pH 7.4) / n-octanol, read-out: log D7.4
measure-name: logD
Format: numeric value only, no unit, no commentary.

-- ask logD lookup needed for [18F]CCOc1ccc2[nH]c3c(-c4cccc5ccccc45)nccc3c2c1 [[^18F]1] , thanks.
-- reply 2.35
